# System: MCF7 breast
# EXPERIMENT DESCRIPTION: NCI tumour cell line growth inhibition, 48 h
Entries and their TGI

Answered cases to consult:
> print(dat)
                                    compound  experimental.result
 1  CC(C)(O)C1CC[C@]2(C)[C@H]3CC[C@@H]4[C@@]5(C)CCCC(C)(C)[C@@H]5CC[C@@]4(C)[C@]3(C)CC[C@@H]12 (stereo partly drawn)             > 100 µM
 2  CCN1CCN(Cc2ccc(NC(=O)Nc3nc4ccc(Oc5ccnc(C(=O)NC)c5)cc4s3)cc2C(F)(F)F)CC1              2.89 µM
 3    c1cc(-c2nnc(SSc3ncnc4nc[nH]c34)o2)ccn1             > 100 µM
 4  CC(=O)OC1C2CCC3C(C)(O)C4CC(O)C(C)(C)C4(O)C(O)CC13CC2(C)O (stereo not drawn)             > 100 µM
 5  CN(C)CCNC(=O)c1ccc(-c2nc3ccc4[nH]ncc4c3c3c2C2CCC3C2)cc1 (stereo not drawn)               6.7 µM
 6  OCC(CCc1ccccc1I)C1=CCC2(CC1)OCCO2 (stereo not drawn)              55.1 µM
 7  CNNC(=N\S(=O)(=O)c1cc(C)c(Cl)cc1SCc1ccccc1)/N=C/c1ccc([N+](=O)[O-])s1             > 100 µM
 8  CO[C@H]1O[C@@H]2CO[C@@H](c3ccccc3)O[C@H]2[C@@H]2C/C=C\CCC[C@@]12O              44.9 µM
 9  COC(=O)C12CC(NC(=O)c3csc([C@@H](C[C@H](C(C)C)N(C)C(=O)[C@@H](NC(=O)[C@H]4CCCCN4C)C4CC4)OC(C)=O)n3)(C1)C2            > 16.7 µM
10                       Cc1nnc2n(c1=O)CCN2C             > 100 µM

Report TGI for Cc1c(OCc2ccccc2)c(=O)ccn1CCc1c[nH]c2ccccc12 please.
42.9 µM

Report TGI for COC(=O)c1c(C)cccc1C1CN=NC12Cc1ccc(C)c(C)c1C2=O (stereo not drawn) please.
> 100 µM

Dear colleague, I am looking for the recorded TGI of the following compound: O=S(=O)(O)c1cccc2cccc(N=Nc3c(O)ccc4ccccc34)c12
> 100 µM

Item under review: CS[C@]12[C@@H]3C(=O)N(C)C(=O)[C@@H]3[C@](C)(C(=O)N1C)C(=O)N2c1ccccc1 . Reported TGI?
> 100 µM

Given O=C(Nc1ccc(-n2ccc3c(NC(=O)c4ccccc4)ncnc32)cc1)c1cccc(C(F)(F)F)c1 , state its recorded TGI.
18.5 µM

May I ask what TGI has been recorded for O=C(O)CC[P+](c1ccccc1)(c1ccccc1)c1ccccc1 ?
> 100 µM

What measured TGI goes with CCn1c(-c2cc3c([nH]c4ccccc43)c(-c3cccc(O)c3)n2)n[nH]c1=S ?
14 µM

TGI lookup needed for COC(=O)c1c(CC(Cc2ccc3c(c2)CCCC3)C(=O)OC)ccc2c1CCCC2 (stereo not drawn) , thanks.
> 100 µM

Query: TGI; subject: O=C(Nc1ccc(F)cc1F)c1cc(Cl)ccc1O
> 100 µM

Item Cc1ccc2nc(-c3ccc(OCC(=O)N=Nc4c(O)[nH]c5ccccc45)cc3)[nH]c2c1 has what recorded TGI?
3.96 µM

Which TGI reading was recorded for the compound CCOc1ccc(N=NC2C(=O)N(C(=O)CC(=O)Nc3ccccc3)N=C2C)cc1 (stereo not drawn) ?
> 100 µM

Request the reported TGI associated with CCCC1C(=O)Nc2cccc3ncn(c23)C1=O (stereo not drawn)
> 100 µM

Record request: TGI value, item Cc1ccc(-c2cc(O)c3nc4ccccc4n3c2)cc1
> 100 µM

Report TGI for CC(C)(C)CC(C)(C)NC(=S)NO please.
> 100 µM

Bench note: what TGI did C=C1C(=O)O[C@H]2[C@H]1CC/C(COC(=O)NCc1ccc(OC)cc1)=C\CC[C@@]1(C)O[C@@H]21 show?
5.45 µM

Please give the measured TGI for this compound: O=[N+]([O-])c1nccn1CC(O)CN1CCCCC1 (stereo not drawn)
> 100 µM

Tell me the measured TGI of CCOc1ccc2c(c1)C(=O)c1c-2n(CCCBr)c(=O)c2cc([N+](=O)[O-])ccc12 , please.
63.8 µM

What TGI value was documented for this compound, COC(=O)C1=C(O)C(C(=O)OC)[C@]2(O)[C@@H](C(=O)OC)[C@H]1C[C@@H](c1ccccc1)[C@@H]2C(=O)OC (stereo partly drawn) ?
> 100 µM

Consider the compound NC(=O)[C@@H](CC1CC1)[C@@H](CCC(F)(F)F)C(=O)N[C@H]1N=C(c2ccccc2)c2cccc(F)c2NC1=O and give its measured TGI.
> 100 µM

If you can, please state the reported TGI value of Cn1c(=O)c2[nH]c(SCCN3CCOCC3)nc2n(C)c1=S .
> 100 µM

# lookup: TGI of Cc1ccc(-c2nnc(CCCCCCCCc3nnc(-c4ccc(C)cc4O)n3N)n2N)c(O)c1
> 100 µM

Look up TGI for this compound: NC(Cc1c[nH]c2cc([N+](=O)[O-])ccc12)C(=O)O (stereo not drawn)
> 100 µM

Could you tell me which TGI is on file for CCN(CC)CCCNC(=O)c1cc2cc(NC(=O)c3cc4cc([N+](=O)[O-])ccc4[nH]3)ccc2[nH]1 ?
> 100 µM
